Tested on: Fibrinogen (Alexa647-labelled)
Experiment: fibrinogen binders on compound microarrays, profiling panel, artefact control for SMM control-protein annotation, biochemical, small-molecule microarray, 635/667 nm fluorescence (AID 1131);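 further: z-score merges 667 nm fluorescence with per-spot signal-to-noise over triplicate slides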
Conditions: fibrinogen-A647 binding fluorescence, higher = more signal
Listing: composite z-score of selected molecules
Measurement Name: composite z-score

molecule=C=CCNC(=O)[C@H]1[C@@H]2C(=O)O[C@@H](c3ccccc3)[C@@H](c3ccccc3)N2[C@@H](c2ccccc2OCCO)[C@]12C(=O)Nc1ccc(C#CCC(C(=O)OC)C(=O)OC)cc12 measurement_name="composite z-score" experimental_value=0.931
molecule=COC(=O)[C@@]1(Cc2ccc(OC)cc2)[C@H]2c3cc(C(=O)N(C)C)n(Cc4ccccn4)c3C[C@H]2CN1C(=O)c1ccccc1 measurement_name="composite z-score" experimental_value=0.547
molecule=[N-]=[N+]=NCc1ccccc1C[C@]1(C(N)=O)COC(c2ccc(OCCCO)cc2)=N1 measurement_name="composite z-score" experimental_value=0.389
molecule=CC(C)C(=C=CC[C@@H](O)c1ccc(OCCO)cc1)C[C@@H](O)c1ccccn1 measurement_name="composite z-score" experimental_value=0.819
molecule="O=C(OCc1ccccc1)C1=CCC2c3[nH]c4ccccc4c3C(=O)C1N2S(=O)(=O)c1ccccc1[N+](=O)[O-] (stereo not given)" measurement_name="composite z-score" experimental_value=0.906

====

Assay: small-molecule microarray binders of probe aDKK1, primary screen, biochemical, biotinylated probe, 635/667 nm fluorescence (AID 1099);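 further: score merges 667nm spot fluorescence with signal to noise across triplicate slides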
Conditions: higher = more signal
Is composite z-score at least 0.1? Then yes. If not, no.

compound=COC(=O)C(CC#Cc1ccc2c(c1)[C@]1(C(=O)N2)[C@H](c2ccc(OCCO)cc2)N2[C@H](c3ccccc3)[C@H](c3ccccc3)OC(=O)[C@H]2[C@@H]1C(=O)N1CCc2cc(OC)c(OC)cc2C1)C(=O)OC class=yes
compound=O=C(c1ccccc1)N1C(=O)[C@]2(COC(c3ccc(OCCCO)cc3)=N2)Cc2ccccc21 class=yes
compound=C=CCOC(=O)[C@H]1[C@@H]2C(=O)O[C@@H](c3ccccc3)[C@@H](c3ccccc3)N2[C@@H](c2ccc(OCCOC(=O)[C@@H]3C[C@@H]4C(=O)N[C@@H](CC(C)C)C(=O)N4[C@@H]3c3ccc(O)cc3)cc2)[C@]12C(=O)Nc1ccccc12 class=yes
compound="NC(=O)N1C(=O)C2C(C1=O)C1C=C(c3ccc(CO)cc3)C2C(c2cccs2)N1Cc1cccc(OC(F)(F)F)c1 (centres undefined)" class=yes
compound=CC(C)C[C@@H]1NC(=O)[C@@H]2C[C@H](C(=O)NCc3ccc(F)cc3)[C@H](c3cccc(OCCO)c3)N2C1=O class=no
compound=O=C(NCCN1CCOCC1)[C@@H]1c2ccccc2C(=O)N(C2CCCCC2)[C@H]1c1ccc(CO)cc1 class=yes
compound=COc1ccc(/C=C/C=O)cc1 class=no
compound=C=C(CC1([C@@H](NP(=O)(c2ccccc2)c2ccccc2)[C@H]2C[C@@H]2CCCC)CC1)c1ccccc1 class=yes
compound=C=C(CCCC)/C(=C/C[C@H](OC(=O)c1ccncc1)c1ccccc1OCCO)c1cnc2ccccc2c1 class=no
compound=CCOC(=O)C[C@H]1[C@H](OC(=O)c2ccc(C(=O)c3ccccc3)cc2)[C@@H](NC(=O)c2ccc3ccccc3c2)c2cc(OCCCO)ccc2N1C(=O)Cc1ccc(OC)cc1 class=yes
compound=COc1cc2c(cc1OC)CN(C(=O)[C@@H]1[C@H]3C(=O)O[C@H](c4ccccc4)[C@H](c4ccccc4)N3[C@H](c3ccccc3OCCO)[C@@]13C(=O)Nc1ccc(C#CCCO)cc13)CC2 class=yes
compound=COc1ccc([Si](C)(C)[C@@H]2[C@@H](CCO)O[C@]3(C(=O)N(Cc4ccc(N(C=O)c5ccccc5)cc4)c4ccccc43)[C@H]2C)cc1 class=yes
compound=CO[C@H]1O[C@H](CO)[C@@H](OC(=O)Nc2ccc(C(F)(F)F)cc2)[C@H](OC(=O)Nc2ccc3c(c2)OCO3)[C@@H]1OC(=O)Nc1ccc2c(c1)OCO2 class=yes
compound=O=C1c2ccccc2[C@](Cc2ccccc2I)(C(=O)NCCN2CCOCC2)[C@H](c2ccc(CO)cc2)N1C1CCCCC1 class=yes
compound=C=CCOC(=O)[C@H]1[C@@H]2C(=O)O[C@@H](c3ccccc3)[C@@H](c3ccccc3)N2[C@@H](c2ccc(OCCOC(=O)[C@H]3C[C@H]4C(=O)N[C@@H](CCCCNC(C)=O)C(=O)N4[C@H]3c3ccc(O)cc3)cc2)[C@]12C(=O)Nc1ccc(I)cc12 class=no
compound=C=CCN1C(=O)[C@@]2(Cc3ccccc31)N=C(c1ccc(OCCCO)cc1)O[C@H]2c1ccccc1 class=yes
compound=COC(=O)[C@]1(CCC(=O)OC(C)(C)C)N=C(c2ccc(OCCCO)cc2)O[C@@H]1c1ccccc1CN=[N+]=[N-] class=yes
compound=C=C(CCCC)/C(=C/C[C@@H](OC(=O)c1ccncc1)c1ccc(OCCO)cc1)c1cc(C(=O)OC)ccc1OC class=no
compound=COCCOC(=O)N1C(=O)[C@@]2(c3cc(C#CCC(C(=O)OC)C(=O)OC)ccc31)[C@H](C(=O)N1CCN(c3ncccn3)CC1)[C@H]1C(=O)O[C@H](c3ccccc3)[C@H](c3ccccc3)N1[C@@H]2c1ccccc1OCCO class=no

Attribution: PubChem BioAssay
